test_target: T1, GAL4 activation domain fusion (ACT) to HAB1 (UniProt Q9CAJ0 23-511, limits assumed)
T1 construct: pACT-HAB1 fusion in yeast reporter strains; also called pACT-HAB1
T1 sequence (looked up): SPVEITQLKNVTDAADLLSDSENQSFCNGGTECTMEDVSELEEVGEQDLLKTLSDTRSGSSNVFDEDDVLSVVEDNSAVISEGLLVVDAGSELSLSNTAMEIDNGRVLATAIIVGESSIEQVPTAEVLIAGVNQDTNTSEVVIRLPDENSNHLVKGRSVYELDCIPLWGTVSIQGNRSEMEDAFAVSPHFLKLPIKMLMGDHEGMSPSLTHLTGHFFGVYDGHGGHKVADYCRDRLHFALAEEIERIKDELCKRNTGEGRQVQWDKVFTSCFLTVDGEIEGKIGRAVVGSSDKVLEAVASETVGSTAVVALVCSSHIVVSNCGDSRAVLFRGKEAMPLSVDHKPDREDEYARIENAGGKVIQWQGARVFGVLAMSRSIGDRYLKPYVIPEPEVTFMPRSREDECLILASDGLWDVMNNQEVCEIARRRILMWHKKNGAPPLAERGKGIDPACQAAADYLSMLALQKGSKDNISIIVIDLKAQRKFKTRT
procedure_text: yeast two-hybrid, X-gal; lowest benzothiadiazole concentration giving signal
A collection of binders and their measured Threshold
# output: bare number, implied unit µM

[ask] Report Threshold, nothing else, for this binder: PYR1^K59R,V164Y (receptor, not shown: small tags and cut ends, pBD-PYR1 fusion in yeast) MPSELTPEERSELKNSIAEFHTYQLDPGSCSSLHAQRIHAPPELVWSIVRRFDKPQTYRHFIKSCSVEQNFEMRVGCTRDVIVISGLPANTSTERLDILDDERRVTGFSIIGGEHRLTNYKSVTTVHRFEKENRIWTVVLESYVVDMPEGNSEDDTRMFADTVYKLNLQKLATVAEAMARNSGDGSGSQVT
[reply] 100

[ask] Find the measured Threshold of PYR1^K59R,F159I (receptor, not shown: small tags and cut ends, pBD-PYR1 fusion in yeast; also called K59R F1591) MPSELTPEERSELKNSIAEFHTYQLDPGSCSSLHAQRIHAPPELVWSIVRRFDKPQTYRHFIKSCSVEQNFEMRVGCTRDVIVISGLPANTSTERLDILDDERRVTGFSIIGGEHRLTNYKSVTTVHRFEKENRIWTVVLESYVVDMPEGNSEDDTRMIADTVVKLNLQKLATVAEAMARNSGDGSGSQVT and report it.
[reply] 100

[ask] Tell me its Threshold given PYR1^K59R,F159T (receptor, not shown: small tags and cut ends, pBD-PYR1 fusion in yeast) MPSELTPEERSELKNSIAEFHTYQLDPGSCSSLHAQRIHAPPELVWSIVRRFDKPQTYRHFIKSCSVEQNFEMRVGCTRDVIVISGLPANTSTERLDILDDERRVTGFSIIGGEHRLTNYKSVTTVHRFEKENRIWTVVLESYVVDMPEGNSEDDTRMTADTVVKLNLQKLATVAEAMARNSGDGSGSQVT as the entry.
[reply] 100

More entries:
[ask] Supply measured Threshold of PYR1^K59R,M158T (receptor, not shown: small tags and cut ends, pBD-PYR1 fusion in yeast) MPSELTPEERSELKNSIAEFHTYQLDPGSCSSLHAQRIHAPPELVWSIVRRFDKPQTYRHFIKSCSVEQNFEMRVGCTRDVIVISGLPANTSTERLDILDDERRVTGFSIIGGEHRLTNYKSVTTVHRFEKENRIWTVVLESYVVDMPEGNSEDDTRTFADTVVKLNLQKLATVAEAMARNSGDGSGSQVT in your reply.
[reply] 100

[ask] Give the measured Threshold for PYR1^K59R,F159M (receptor, not shown: small tags and cut ends, pBD-PYR1 fusion in yeast) MPSELTPEERSELKNSIAEFHTYQLDPGSCSSLHAQRIHAPPELVWSIVRRFDKPQTYRHFIKSCSVEQNFEMRVGCTRDVIVISGLPANTSTERLDILDDERRVTGFSIIGGEHRLTNYKSVTTVHRFEKENRIWTVVLESYVVDMPEGNSEDDTRMMADTVVKLNLQKLATVAEAMARNSGDGSGSQVT
[reply] 100

[ask] Read the entry PYR1^K59R,E141Y,A160G (receptor, pBD-PYR1 fusion in yeast) MPSELTPEERSELKNSIAEFHTYQLDPGSCSSLHAQRIHAPPELVWSIVRRFDKPQTYRHFIKSCSVEQNFEMRVGCTRDVIVISGLPANTSTERLDILDDERRVTGFSIIGGEHRLTNYKSVTTVHRFEKENRIWTVVLYSYVVDMPEGNSEDDTRMFGDTVVKLNLQKLATVAEAMARNSGDGSGSQVT and write its reported Threshold.
[reply] 5
